Hey, just so you know, these numbers are from ChEMBL document CHEMBL1165950.

- Test system: LOX IMVI
- test-method-notes: Cytotoxicity against human LOXIMVI cells assessed as cell growth at 100 nM after 48 hrs by sulforhodamine B assay
- Format: functional
- reported-conditions: read-out: Activity
# growth at 0.1 µM >= 40% gives yes, anything below gives no

- COc1cc(C)cc(-c2nn(CC#N)cc2-c2ccc(-c3cccc(C(C)=O)c3)nc2)c1: yes
- COc1cc(C)cc(-c2c(-c3ccnc(-c4ccc(C(C)=O)cc4)c3)cnn2CC#N)c1: yes
- Cc1cc(O)cc(-c2nn(CC#N)cc2-c2ccnc(-c3ccc(Oc4ccccc4)cc3)c2)c1: yes

Q: Test whether the compound `COc1cc(C)cc(-c2c(-c3ccnc(-c4ccc(N(C)C)cc4)c3)cnn2CC#N)c1` records growth at 0.1 µM of 40% or higher.
Result: no

Q: Test whether the compound `Cc1cc(O)cc(-c2nn(CC#N)cc2-c2ccnc(-c3ccc(N(C)C)cc3)c2)c1` records growth at 0.1 µM of 40% or higher.
Result: yes

----------
- Tested on: K562
- test-method-notes: Cytotoxicity against human K562 cells assessed as cell growth at 1 uM after 48 hrs by sulforhodamine B assay
- Type: functional
- reported-conditions: K562, 48 h, read-out: Activity
Listed compounds paired with reported growth at 1 µM
Expressed in %, but write only the number.

Please review the following examples before continuing.
* Cc1cc(O)cc(-c2nn(CC#N)cc2-c2ccnc(-c3ccc(Oc4ccccc4)cc3)c2)c1 | -13
* COc1cc(C)cc(-c2c(-c3ccnc(-c4ccc(N(C)C)cc4)c3)cnn2CC#N)c1 | -5
* Cc1cc(O)cc(-c2nn(CC#N)cc2-c2ccnc(-c3ccc(N(C)C)cc3)c2)c1 | 7
* COc1cc(C)cc(-c2c(-c3ccnc(-c4ccc(C(C)=O)cc4)c3)cnn2CC#N)c1 | 4
* COc1cc(C)cc(-c2nn(CC#N)cc2-c2ccnc(-c3ccc(N(C)C)cc3)c2)c1 | 4

// next item, growth at 1 µM requested
Q: Respond only with growth at 1 µM recorded for `COc1cc(C)cc(-c2nn(CC#N)cc2-c2ccc(-c3cccc(C(C)=O)c3)nc2)c1`
Result: 5

----------
- Tested on: OVCAR-8
- test-method-notes: Cytotoxicity against human OVCAR8 cells assessed as cell growth at 10 uM
- Type: functional
- reported-conditions: read-out: Activity
So basically, the class depends on measured growth at 10 µM, and the ranges are interval 1 = under 40%, interval 2 = from 40% up to 80%, interval 3 = 80% and over

Q: For `COc1cc(C)cc(-c2c(-c3ccnc(-c4cccc(NC(C)=O)c4)c3)cnn2CC#N)c1` , which growth at 10 µM bin applies?
Result: interval 3

----------
- System: T47D
- test-method-notes: Cytotoxicity against human T47D cells assessed as cell growth at 1 uM after 48 hrs by sulforhodamine B assay
- Format: functional
- reported-conditions: read-out: Activity
Listed compounds paired with reported growth at 1 µM
Expressed in %, but write only the number.

- COc1cc(C)cc(-c2c(-c3ccnc(-c4ccc(C(C)=O)cc4)c3)cnn2CC#N)c1: -9
- COc1cc(C)cc(-c2nn(CC#N)cc2-c2ccc(-c3cccc(C(C)=O)c3)nc2)c1: -7
- Cc1cc(O)cc(-c2nn(CC#N)cc2-c2ccnc(-c3ccc(Oc4ccccc4)cc3)c2)c1: -26
- Cc1cc(O)cc(-c2nn(CC#N)cc2-c2ccnc(-c3ccc(N(C)C)cc3)c2)c1: 5
- COc1cc(C)cc(-c2c(-c3ccnc(-c4ccc(N(C)C)cc4)c3)cnn2CC#N)c1: 19

// next item, growth at 1 µM requested
Q: Respond only with growth at 1 µM recorded for `COc1cc(C)cc(-c2nn(CC#N)cc2-c2ccnc(-c3ccc(N(C)C)cc3)c2)c1`
Result: 10

----------
- System: PC-3
- test-method-notes: Cytotoxicity against human PC3 cells assessed as cell growth at 10 uM
- Format: functional
- reported-conditions: read-out: Activity
measurement-label: growth at 10 µM
Answer with the figure and its unit, nothing else.

Please review the following examples before continuing.
• COc1cc(C)cc(-c2nn(CC#N)cc2-c2ccc(-c3cccc(C(C)=O)c3)nc2)c1 = 31.5%
• Cc1cc(O)cc(-c2nn(CC#N)cc2-c2ccnc(-c3ccc(Oc4ccccc4)cc3)c2)c1 = 66.4%
• COc1cc(C)cc(-c2nn(CC#N)cc2-c2ccnc(-c3ccc(N(C)C)cc3)c2)c1 = 31.6%

Q: System PC-3. Read-out growth at 10 µM. Item `COc1cc(C)cc(-c2nn(CC#N)cc2-c2ccnc(-c3cccc(NC(C)=O)c3)c2)c1` . Report value.
Result: 85.8%

----------
- Tested on: PC-3
- test-method-notes: Cytotoxicity against human PC3 cells assessed as cell growth at 0.01 uM after 48 hrs by sulforhodamine B assay
- Type: functional
- reported-conditions: PC-3, 48 h, read-out: Activity
Consider the cut-off 90%. If the recorded growth at 0.01 µM is strictly smaller, the label is true; if not, the label is false.

- COc1cc(C)cc(-c2c(-c3ccnc(-c4ccc(N(C)C)cc4)c3)cnn2CC#N)c1: true
- COc1cc(C)cc(-c2nn(CC#N)cc2-c2ccnc(-c3ccc(N(C)C)cc3)c2)c1: false

Please look at the following compound next.
Q: Problem: For the compound `Cc1cc(O)cc(-c2nn(CC#N)cc2-c2ccnc(-c3ccc(Oc4ccccc4)cc3)c2)c1` , is growth at 0.01 µM under 90%?
Result: true

----------
Listed compounds paired with reported growth at 0.1 µM
- System: SNB-75
- test-method-notes: Cytotoxicity against human SNB75 cells assessed as cell growth at 100 nM after 48 hrs by sulforhodamine B assay
- Type: functional
- reported-conditions: SNB-75, 48 h, read-out: Activity
Expressed in %, but write only the number.

Please review the following examples before continuing.
• COc1cc(C)cc(-c2c(-c3ccnc(-c4ccc(C(C)=O)cc4)c3)cnn2CC#N)c1 = 76
• COc1cc(C)cc(-c2nn(CC#N)cc2-c2ccc(-c3cccc(C(C)=O)c3)nc2)c1 = 79
• COc1cc(C)cc(-c2nn(CC#N)cc2-c2ccnc(-c3ccc(N(C)C)cc3)c2)c1 = -8
• Cc1cc(O)cc(-c2nn(CC#N)cc2-c2ccnc(-c3ccc(N(C)C)cc3)c2)c1 = 77
• Cc1cc(O)cc(-c2nn(CC#N)cc2-c2ccnc(-c3ccc(Oc4ccccc4)cc3)c2)c1 = 78

// next item, growth at 0.1 µM requested
Q: Respond only with growth at 0.1 µM recorded for `COc1cc(C)cc(-c2c(-c3ccnc(-c4ccc(N(C)C)cc4)c3)cnn2CC#N)c1`
Result: 6

----------
- Test system: MDA-MB-435
- test-method-notes: Growth inhibition of human MDA-MB-435 cells after 48 hrs by sulforhodamine B assay
- Type: functional
- reported-conditions: MDA-MB-435, 48 h
measurement-label: log10 of GI50 (log10 of the value in nM)
Could you please treat all values as log10 of GI50 in nM?

Q: System MDA-MB-435. Read-out log10 of GI50. Item `COc1cc(C)cc(-c2nn(CC#N)cc2-c2ccnc(-c3ccc(N(C)C)cc3)c2)c1` . Report value.
Result: 2.37

Q: System MDA-MB-435. Read-out log10 of GI50. Item `COc1cc(C)cc(-c2c(-c3ccnc(-c4ccc(C(C)=O)cc4)c3)cnn2CC#N)c1` . Report value.
Result: 3.29

Q: System MDA-MB-435. Read-out log10 of GI50. Item `COc1cc(C)cc(-c2c(-c3ccnc(-c4ccc(N(C)C)cc4)c3)cnn2CC#N)c1` . Report value.
Result: 1.35

Q: System MDA-MB-435. Read-out log10 of GI50. Item `Cc1cc(O)cc(-c2nn(CC#N)cc2-c2ccnc(-c3ccc(Oc4ccccc4)cc3)c2)c1` . Report value.
Result: 3.37

Q: System MDA-MB-435. Read-out log10 of GI50. Item `Cc1cc(O)cc(-c2nn(CC#N)cc2-c2ccnc(-c3ccc(N(C)C)cc3)c2)c1` . Report value.
Result: 3.00

----------
- Tested on: NCI-H460
- test-method-notes: Cytotoxicity against human NCI-H460 cells assessed as cell growth at 100 nM after 48 hrs by sulforhodamine B assay
- Format: functional
- reported-conditions: NCI-H460, 48 h, read-out: Activity
measurement-label: growth at 0.1 µM (%)
Expressed in %, but write only the number.

Please review the following examples before continuing.
- COc1cc(C)cc(-c2c(-c3ccnc(-c4ccc(C(C)=O)cc4)c3)cnn2CC#N)c1: 87
- Cc1cc(O)cc(-c2nn(CC#N)cc2-c2ccnc(-c3ccc(Oc4ccccc4)cc3)c2)c1: 99
- COc1cc(C)cc(-c2nn(CC#N)cc2-c2ccnc(-c3ccc(N(C)C)cc3)c2)c1: 8
- Cc1cc(O)cc(-c2nn(CC#N)cc2-c2ccnc(-c3ccc(N(C)C)cc3)c2)c1: 90
- COc1cc(C)cc(-c2nn(CC#N)cc2-c2ccc(-c3cccc(C(C)=O)c3)nc2)c1: 84

// next item, growth at 0.1 µM requested
Q: System NCI-H460. Read-out growth at 0.1 µM. Item `COc1cc(C)cc(-c2c(-c3ccnc(-c4ccc(N(C)C)cc4)c3)cnn2CC#N)c1` . Report value.
Result: -43
